# credit: patent US7018642B2

System: P. fluorescens strain ATCC 13525
Assay: Biofilm prevention screen (96-well microplate, crystal violet)
Type: cell-based
Settings: Pseudomonas fluorescens, ATCC13525, 32 μM, positive = prevention, negative = enhancement of biofilm formation, quadruplicate, read-out: average percentage reduction of biofilm formed relative to DMSO controls
observed-property: inhibition at 32 µM (%)
Numbers only, in %.

# inhibition at 32 µM (compound: CCCCCCNC(=O)[C@@H]1CCN1C(=O)OC(C)(C)C ) is 3

Reported inhibition at 32 µM of CCCCCCCCNC(=O)C1CCCN1C(C)=O (centres unmarked) : -12

Please fill in: inhibition at 32 µM reported for CCCCCCCCNC(=O)[C@@H]1CCCCN1C(C)=O = 2

Entry CCCCCCCCNC(=O)[C@H]1CCCN1C(=O)OC(C)(C)C , inhibition at 32 µM reported as 4

Notebook: CCCCCCNC(=O)[C@@H]1CCCN1C(=O)OC(C)(C)C , inhibition at 32 µM read as -1

I'm hoping you can list inhibition at 32 µM for every compound here, please.
1. CCCCCCCCCCNC(=O)[C@@H]1CCCN1C(=O)OC(C)(C)C
2. CCCCCCCCCCCCNC(=O)[C@@H]1CCCN1
3. CCCCNC(=O)[C@H]1CCCN1

(A)
1. -16
2. 26
3. 7

###

System: S. epidermidis strain ATCC 35984
Assay: Biofilm prevention screen (96-well microplate, crystal violet)
Type: cell-based
Settings: Staphylococcus epidermidis, ATCC35984, 32 μM, positive = prevention, negative = enhancement of biofilm formation, quadruplicate, read-out: average percentage reduction of biofilm formed relative to DMSO controls
observed-property: inhibition at 32 µM (%)
Answers are plain numbers, in %.

Examples with their reported inhibition at 32 µM follow.
CCCCCCCCCCNC(=O)C1CCCN1C(C)=O (stereo not shown) [Compound 9] yielded inhibition at 32 µM of -21

// field: inhibition at 32 µM; key: CCCCCCCCNC(=O)[C@@H]1CCN1 [Compound 288] ; value = 101

Recorded result, CCCCCCCCNC(=O)C1CCCN1C(C)=O (stereo not shown) [Compound 8] , inhibition at 32 µM: -13

For each of the compounds below, state inhibition at 32 µM.
1. CCCCCCCCNC(=O)[C@@H]1CCCCN1C(C)=O [Compound 21]
2. CCCCCCCCCCNC(=O)[C@H]1CCCN1 [Compound 166]
3. CCCCCCNC(=O)[C@@H]1CCCN1 [Compound 30]
4. CCCCCCNC(=O)[C@H]1CCCN1C(=O)OC(C)(C)C [Compound 153]
5. CC(C)(C)OC(=O)N1CCC[C@@H]1C(=O)NCCCCCCCCCCCCNC(=O)[C@H]1CCCN1C(=O)OC(C)(C)C [Compound 225]

(A)
-15
13
-12
-8
-21

Lab note: each compound below needs its inhibition at 32 µM filled in.
1. CCCCNC(=O)[C@@H]1CCCN1 [Compound 165]
2. CCCCCCCCNC(=O)[C@@H]1CCCN1C(=O)OC(C)(C)C [Compound 11]

(A)
1. -6
2. 10

###

System: S. epidermidis strain ATCC 35984
Test: Biofilm prevention screen (96-well microplate, crystal violet)
Assay type: cell-based
Conditions: Staphylococcus epidermidis, ATCC35984, 390 μM, positive = prevention, negative = enhancement of biofilm formation, quadruplicate, read-out: average percentage reduction of biofilm formed relative to DMSO controls
Description: […] Cells present in biofilm attached to the microplate surface are stained with CV either after removal of the liquid from each well, followed by rinsing three times (aspiration and addition) with 150 μl per well phosphate buffered saline solution (PBS) and final addition of 100 μl per well of PBS, or by direct addition of stain to bacterial cultures without rinsing. […] Readings from wells containing compounds are compared to the average of data from control wells that contain only DMSO. […]
observed-property: inhibition at 390 µM (%)
One number for each entry, in %.

Note to self: inhibition at 390 µM recorded for CCCCCCCCNC(=O)[C@@H]1CCCCN1 was -59

# map each molecule to its inhibition at 390 µM
1. CCCCCCCCNC(=O)[C@@H]1CCCCN1C(=O)OC(C)(C)C
2. O=C(NCCCCCCCCCCCCNC(=O)[C@H]1CCCN1)[C@H]1CCCN1 [Compound 226, D-proline 1,12-diaminododecane bisamide]
3. CCCCCCNC(=O)C1CCCN1C(C)=O (racemic)
4. CCCCCCCCCCCCNC(=O)[C@@H]1CCCN1
5. CCCCCCCCCCNC(=O)C1CCCN1C(C)=O (stereo not drawn)
6. CCCCNC(=O)[C@@H]1CCCN1C(=O)OC(C)(C)C
7. CCCCCCCCCCNC(=O)[C@@H]1CCN1
8. CC(C)(C)OC(=O)N1CCC[C@@H]1C(=O)NCCCCCCCCCCCCNC(=O)[C@H]1CCCN1C(=O)OC(C)(C)C

(A)
-11
100
-11
98
33
21
101
-39

###

System: P. aeruginosa strain PAO1
Assay: Biofilm prevention screen (96-well microplate, crystal violet)
Type: cell-based
Details: Pseudomonas aeruginosa, 32 μM, positive = prevention, negative = enhancement of biofilm formation, quadruplicate, read-out: average percentage reduction of biofilm formed relative to DMSO controls
observed-property: inhibition at 32 µM (%)
Give bare numbers, in %.

Lab entry: P. aeruginosa strain PAO1 assay, compound CCCCCCCCCCNC(=O)C1CCCN1C(C)=O (centres unmarked) [Compound 9] , inhibition at 32 µM = -6

Fill in: P. aeruginosa strain PAO1 inhibition at 32 µM for CCCCCCCCNC(=O)[C@@H]1CCCCN1C(C)=O [Compound 21] = -6

Response field inhibition at 32 µM (P. aeruginosa strain PAO1) for item CCCCCCCCNC(=O)[C@H]1CCCCN1C(C)=O [Compound 24] : -12

Bench note, P. aeruginosa strain PAO1: entry CCCCCCNC(=O)[C@H]1CCCN1 [Compound 163] , its inhibition at 32 µM = 1

CCCCCCNC(=O)[C@@H]1CCCN1C(=O)OC(C)(C)C [Compound 10] tested on P. aeruginosa strain PAO1 gave inhibition at 32 µM: -7

For each listed entry, give its inhibition at 32 µM.
1. CCCCCCCCNC(=O)[C@H]1CCCN1C(=O)OC(C)(C)C [Compound 154]
2. CCCCCCCCCCNC(=O)[C@@H]1CCN1 [Compound 289]
3. CCCCCCNC(=O)[C@@H]1CCCN1 [Compound 30]
4. CCCCCCCCCCNC(=O)[C@@H]1CCN1C(=O)OC(C)(C)C [Compound 285]
5. CCCCCCCCCCNC(=O)[C@@H]1CCCN1 [Compound 32, L-proline n-decyl amide]

(A)
1. -1
2. 9
3. 2
4. 7
5. -15

Record CCCCCCCCNC(=O)[C@H]1CCCN1 [Compound 164] ; system P. aeruginosa strain PAO1; inhibition at 32 µM = 6

###

Test system: S. epidermidis strain ATCC 35984
Experiment: Biofilm prevention screen (96-well microplate, crystal violet)
Format: cell-based
Conditions: Staphylococcus epidermidis, ATCC35984, 160 μM, positive = prevention, negative = enhancement of biofilm formation, quadruplicate, read-out: average percentage reduction of biofilm formed relative to DMSO controls
observed-property: inhibition at 160 µM (%)
One number for each entry, in %.

Looking up CCCCCCCCNC(=O)C1CCCN1C(C)=O (stereo not shown) [Compound 8] , I found its inhibition at 160 µM recorded as -22

Record inhibition at 160 µM for all entries; do not skip any.
1. CCCCCCCCNC(=O)[C@H]1CCCCN1 [Compound 23]
2. CCCCCCCCNC(=O)[C@H]1CCCCN1C(=O)OC(C)(C)C [Compound 22]
3. CCCCCCCCCCNC(=O)[C@@H]1CCCN1C(=O)OC(C)(C)C [Compound 12]
4. CCCCCCCCNC(=O)[C@@H]1CCCCN1C(=O)OC(C)(C)C [Compound 19]
5. CCCCCCNC(=O)[C@@H]1CCN1 [Compound 287]
6. CCCCCCCCNC(=O)[C@H]1CCCN1C(=O)OC(C)(C)C [Compound 154]
7. CCCCNC(=O)[C@@H]1CCCN1 [Compound 165]
8. CCCCCCCCNC(=O)[C@H]1CCCCN1C(C)=O [Compound 24]

(A)
1: 15; 2: -17; 3: -2; 4: -33; 5: 101; 6: -42; 7: -15; 8: -20

###

Tested on: S. epidermidis strain ATCC 35984
Assay: Biofilm prevention screen (96-well microplate, crystal violet)
Format: cell-based
Details: Staphylococcus epidermidis, ATCC35984, 32 μM, positive = prevention, negative = enhancement of biofilm formation, quadruplicate, read-out: average percentage reduction of biofilm formed relative to DMSO controls
observed-property: inhibition at 32 µM (%)
One number for each entry, in %.

In the examples that follow, each entry is paired with its recorded inhibition at 32 µM.
For this compound ( CCCCCCNC(=O)C1CCCN1C(C)=O (racemic) ), measured inhibition at 32 µM is -10

Item: CCCCCCCCCCCCNC(=O)[C@@H]1CCN1C(=O)OC(C)(C)C | inhibition at 32 µM: -15

inhibition at 32 µM recorded for this compound, CCCCCCCCNC(=O)[C@H]1CCCN1C(=O)OC(C)(C)C , is -16

inhibition at 32 µM reading for CCCCCCNC(=O)[C@@H]1CCN1 : 74

Field: next compound
The compound CCCCNC(=O)[C@@H]1CCCN1C(=O)OC(C)(C)C showed inhibition at 32 µM equal to -3
